The values you see were collected from the NIST ThermoML archive (doi:10.1021/je700621d).

- measurementConditions: 308.15 K; 101.33 kPa; Liquid; Vibrating tube method
endpointLabel: mass density (kg/m3)
Answers are plain numbers, in kg/m3.

Recorded results for 5 compounds are shown here.
- CCCCCCCCOS(=O)(=O)[O-].CCCCn1cc[n+](C)c1 [1-butyl-3-methylimidazolium octyl sulfate]: 1057.1
- CCOS(=O)(=O)[O-].CCn1cc[n+](C)c1 [1-ethyl-3-methylimidazolium ethyl sulfate]: 1234.2
- CCCCCCCC[N+](C)(CCCCCCCC)CCCCCCCC.O=S(=O)([N-]S(=O)(=O)C(F)(F)F)C(F)(F)F: 1097.2
- CCCC[n+]1ccn(C)c1.O=S(=O)([N-]S(=O)(=O)C(F)(F)F)C(F)(F)F: 1427
- CCn1cc[n+](C)c1.O=S(=O)([N-]S(=O)(=O)C(F)(F)F)C(F)(F)F: 1508.7

Next up:
Input line: What value of measured mass density is listed for CCCC[N+](C)(C)C.O=S(=O)([N-]S(=O)(=O)C(F)(F)F)C(F)(F)F [butyltrimethylammonium bis(trifluoromethylsulfonyl)imide] ?
Output line: 1385

----------
- measurementConditions: 278.75 K, Pendant drop shape
endpointLabel: surface tension liquid-gas (mN/m)
Numbers only, in mN/m.

Recorded results for 5 compounds are shown here.
• CCCCCCCC[N+](C)(CCCCCCCC)CCCCCCCC.O=S(=O)([N-]S(=O)(=O)C(F)(F)F)C(F)(F)F = 29.65
• CCn1cc[n+](C)c1.O=S(=O)([N-]S(=O)(=O)C(F)(F)F)C(F)(F)F = 37.31
• CCCC[N+](C)(C)C.O=S(=O)([N-]S(=O)(=O)C(F)(F)F)C(F)(F)F [butyltrimethylammonium bis(trifluoromethylsulfonyl)imide] = 33.31
• CCCC[n+]1ccn(C)c1.O=S(=O)([N-]S(=O)(=O)C(F)(F)F)C(F)(F)F = 33.8
• CCCCCCCCOS(=O)(=O)[O-].CCCCn1cc[n+](C)c1 [1-butyl-3-methylimidazolium octyl sulfate] = 28.08

Input line: What value of measured surface tension liquid-gas is listed for CCOS(=O)(=O)[O-].CCn1cc[n+](C)c1 [1-ethyl-3-methylimidazolium ethyl sulfate] ?
Output line: 46.7

----------
Exercise: state measured mass density for each of the molecules provided.
- measurementConditions: 288.15 K; 101.33 kPa; Liquid; Vibrating tube method
Answers are plain numbers, in kg/m3.

For each entry beneath this line, provide reported mass density.
1. CCOS(=O)(=O)[O-].CCn1cc[n+](C)c1 [1-ethyl-3-methylimidazolium ethyl sulfate]
2. CCn1cc[n+](C)c1.O=S(=O)([N-]S(=O)(=O)C(F)(F)F)C(F)(F)F
3. CCCC[N+](C)(C)C.O=S(=O)([N-]S(=O)(=O)C(F)(F)F)C(F)(F)F [butyltrimethylammonium bis(trifluoromethylsulfonyl)imide]
4. CCCC[n+]1ccn(C)c1.O=S(=O)([N-]S(=O)(=O)C(F)(F)F)C(F)(F)F

Output line:
[1248.1, 1528.9, 1403, 1446.2]

For each entry beneath this line, provide reported mass density.
1. CCCCCCCCOS(=O)(=O)[O-].CCCCn1cc[n+](C)c1 [1-butyl-3-methylimidazolium octyl sulfate]
2. CCCCCCCC[N+](C)(CCCCCCCC)CCCCCCCC.O=S(=O)([N-]S(=O)(=O)C(F)(F)F)C(F)(F)F

Output line:
1. 1070.4
2. 1112.2
